assay: Fluorescence lifetime measurement
Documented τ (fluorescence lifetime) across a set of compounds
Express the result in ns but write the number alone.

Consider the following illustrative entries.
O=C([O-])c1ccccc1-c1c2ccc(=[N+]3CCC3)cc-2oc2cc(N3CCC3)ccc12    3.8
O=C1OC2(c3ccc(N4CCCCC4)cc3Oc3cc(N4CCCCC4)ccc32)c2ccccc21 [piperidine derivative, reference compound]    0.6
CN(C)c1ccc2c(-c3ccccc3C(=O)[O-])c3ccc(N(C)C)cc3[o+]c2c1 [TMR, tetramethylrhodamine, reference compound]    2.2

I'd like to know its τ (fluorescence lifetime). The compound in question is Cl.N=c1ccc2c(-c3ccccc3C(=O)O)c3ccc(N)cc3oc-2c1 [rhodamine 110, reference compound]
3.3

* * *

assay: Quantum yield measurement (Quantaurus-QY spectrometer); assay type: physicochemical; conditions: aqueous buffer
Where a name gives a salt, the structure may show the parent alone.
Reported Property: ϕ (quantum yield)
Would you mind answering with just the numeric figure?

Consider the following illustrative entries.
c1cc2nc3ccc(=[N+]4CCC4)cc-3oc2cc1N1CCC1 [Example 61, trifluoroacetate]    0.24
O=C([O-])c1ccccc1-c1c2ccc(=[N+]3CCC3)cc-2oc2cc(N3CCC3)ccc12    0.88
Cc1cc(=O)oc2cc(N3CCC3)ccc12    0.96
CC1(C)C2=CC(=[N+]3CCC3)C=CC2=C(c2ccccc2C(=O)[O-])c2ccc(N3CCC3)cc21    0.67
O=C(O)c1cc2ccc(N3CCC3)cc2oc1=O    0.84

I'd like to know its ϕ (quantum yield). The molecule in question is `C[Si]1(C)C2=CC(=[N+]3CCC3)C=CC2=C(c2ccccc2C(=O)[O-])c2ccc(N3CCC3)cc21`
0.54

What would you report for CCN(CC)c1ccc2nc3ccc(=[N+](CC)CC)cc-3oc2c1.[O-][Cl+3]([O-])([O-])[O-] [Oxazine 1, reference compound] ?
0.07

What would you report for `c1cc2cc3ccc(N4CCC4)cc3nc2cc1N1CCC1` ?
0.52

* * *

Documented λmax across a set of compounds
Test: Absorption and fluorescence spectroscopy of dyes
Assay type: physicochemical
Conditions: Table 2; 10 mM HEPES pH 7.3
Description: Phosphate buffered saline (PBS) was at pH 7.4 unless otherwise noted. Spectroscopy was performed using 1-cm path length, 3.5-mL quartz cuvettes from Starna Cells or 1-cm path length, 1.0-mL quartz microcuvettes from Hellma. […] Absorption spectra were recorded on a Cary Model 100 spectrometer (Varian); reported values for extinction coefficients (ε) are averages (n=3). Fluorescence spectra were recorded on a Cary Eclipse fluorometer (Varian). […]

Cl.N=c1ccc2c(-c3ccccc3C(=O)O)c3ccc(N)cc3oc-2c1 [rhodamine 110, reference compound]    497 nm
O=C([O-])c1ccccc1-c1c2ccc(=[N+]3CCC3)cc-2oc2cc(N3CCC3)ccc12    549 nm
O=C1OC2(c3ccc(N4CCCCC4)cc3Oc3cc(N4CCCCC4)ccc32)c2ccccc21 [piperidine derivative, reference compound]    560 nm

I'd like to know its λmax. The compound in question is CN(C)c1ccc2c(-c3ccccc3C(=O)[O-])c3ccc(N(C)C)cc3[o+]c2c1 [TMR, tetramethylrhodamine, reference compound]
548 nm

* * *

experiment: Absorption and fluorescence spectroscopy of dyes; assay type: physicochemical; conditions: Table 3; 10 mM HEPES pH 7.3
Reported Property: λmax (nm)
Express the result in nm but write the number alone.

Consider the following illustrative entries.
CCN(CC)c1ccc2nc3ccc(=[N+](CC)CC)cc-3oc2c1.[O-][Cl+3]([O-])([O-])[O-] [Oxazine 1, reference compound]    655
CN(C)c1ccc2cc3ccc(N(C)C)cc3nc2c1 [Acridine Orange, reference compound]    493

Could you now consider this next compound?
I'd like to know its λmax. The compound in question is `C[Si]1(C)C2=CC(=[N+]3CCC3)C=CC2=C(c2ccccc2C(=O)[O-])c2ccc(N3CCC3)cc21`
646

* * *

assay: Quantum yield measurement (Quantaurus-QY spectrometer); type: physicochemical; details: pH 7.3
Reported Property: ϕ

CN(C)c1ccc2c(c1)Oc1cc(O)ccc1C21OC(=O)c2ccccc21 (stereo not shown) [dimethyl rhodol, reference compound]    0.21
Cc1cc(=O)oc2cc(N(C)C)ccc12 [Coumarin 461, reference compound]    0.19
O=C1OC2(c3ccc(N4CCCCC4)cc3Oc3cc(N4CCCCC4)ccc32)c2ccccc21 [piperidine derivative, reference compound]    0.10

I'd like to know its ϕ. The molecule in question is CN(C)c1ccc2c(-c3ccccc3C(=O)[O-])c3ccc(N(C)C)cc3[o+]c2c1 [TMR, tetramethylrhodamine, reference compound]
0.41

* * *

test: Absorption and fluorescence spectroscopy of dyes; type: physicochemical; conditions: Table 3; 10 mM HEPES pH 7.3
Where a name gives a salt, the structure may show the parent alone.
Could you please mark Y for values of λem below 500 nm and N for values at or above it?

CCN(CC)c1ccc2nc3ccc(=[N+](CC)CC)cc-3oc2c1.[O-][Cl+3]([O-])([O-])[O-] [Oxazine 1, reference compound]    N
CC1(C)C2=CC(=[N+]3CCC3)C=CC2=C(c2ccccc2C(=O)[O-])c2ccc(N3CCC3)cc21    N
c1cc2nc3ccc(=[N+]4CCC4)cc-3oc2cc1N1CCC1 [Example 61, trifluoroacetate]    N

Lab note: confirm whether the reported λem for this molecule is below 500 nm, equality not counting. molecule: `Cc1cc(=O)oc2cc(N3CCC3)ccc12`
Y

What would you report for `O=C(O)c1cc2ccc(N3CCC3)cc2oc1=O` ?
Y

* * *

test: Absorption and fluorescence spectroscopy of dyes; assay type: physicochemical; conditions: Table 2; 10 mM HEPES pH 7.3
Reported Property: λem (nm)
Express the result in nm but write the number alone.

I'd like to know its λem. The compound in question is CN(C)c1ccc2c(-c3ccccc3C(=O)[O-])c3ccc(N(C)C)cc3[o+]c2c1 [TMR, tetramethylrhodamine, reference compound]
572

* * *

experiment: Absorption and fluorescence spectroscopy of dyes; assay type: physicochemical; conditions: Table 1; 10 mM HEPES pH 7.3
Reported Property: ε

Consider the following illustrative entries.
COC1CN(c2ccc3c(-c4ccccc4C(=O)[O-])c4ccc(=[N+]5CC(OC)C5)cc-4oc3c2)C1 (stereo not shown) [Example 11]    109,000 M^−1 cm^−1
CN(C)C1CN(c2ccc3c(-c4ccccc4C(=O)[O-])c4ccc(N5CC(N(C)C)C5)cc4[o+]c3c2)C1 [Example 13]    111,000 M^−1 cm^−1
CC1(C)C2=CC(=[N+]3CCC3)C=CC2=C(c2ccccc2C(=O)[O-])c2ccc(N3CCC3)cc21 [Example 40]    99,000 M^−1 cm^−1
O=C([O-])c1ccccc1-c1c2ccc(=[N+]3CC(C(=O)O)C3)cc-2oc2cc(N3CC(C(=O)O)C3)ccc12 (stereo not shown) [Example 16]    108,000 M^−1 cm^−1
O=C([O-])c1ccccc1-c1c2ccc(=[N+]3CC(F)(F)C3)cc-2oc2cc(N3CC(F)(F)C3)ccc12 [Example 9]    94,000 M^−1 cm^−1

I'd like to know its ε. The compound in question is O=C([O-])c1ccccc1-c1c2ccc(=[N+]3CC(F)C3)cc-2oc2cc(N3CC(F)C3)ccc12 (stereo not shown) [Example 10]
113,000 M^−1 cm^−1

What would you report for N#CC1CN(c2ccc3c(-c4ccccc4C(=O)[O-])c4ccc(=[N+]5CC(C#N)C5)cc-4oc3c2)C1 (stereo not shown) [Example 12] ?
108,000 M^−1 cm^−1

What would you report for CC1(C)CN(c2ccc3c(-c4ccccc4C(=O)[O-])c4ccc(=[N+]5CC(C)(C)C5)cc-4oc3c2)C1 [Example 8] ?
110,000 M^−1 cm^−1

What would you report for O=C([O-])c1ccccc1-c1c2ccc(=[N+]3CCC3)cc-2oc2cc(N3CCC3)ccc12 [Example 7] ?
101,000 M^−1 cm^−1

What would you report for O=C(O)CC1CN(c2ccc3c(-c4ccccc4C(=O)[O-])c4ccc(=[N+]5CC(CC(=O)O)C5)cc-4oc3c2)C1 (stereo not shown) [Example 17] ?
111,000 M^−1 cm^−1

* * *

Documented ε across a set of molecules
experiment: Absorption and fluorescence spectroscopy of dyes; format: physicochemical; conditions: Table 3; 10 mM HEPES pH 7.3
Counter-ions that a name gives are not always drawn.

Consider the following illustrative entries.
CN(C)c1ccc2c(c1)Oc1cc(O)ccc1C21OC(=O)c2ccccc21 (centres unmarked) [dimethyl rhodol, reference compound]    60,000 M^−1 cm^−1
c1cc2cc3ccc(N4CCC4)cc3nc2cc1N1CCC1    47,000 M^−1 cm^−1
Cc1cc(=O)oc2cc(N3CCC3)ccc12    15,000 M^−1 cm^−1
O=C(O)c1cc2ccc(N3CCC3)cc2oc1=O    24,000 M^−1 cm^−1

Could you now consider this next molecule?
I'd like to know its ε. The molecule in question is c1cc2nc3ccc(=[N+]4CCC4)cc-3oc2cc1N1CCC1 [Example 61, trifluoroacetate]
99,000 M^−1 cm^−1
